Source listed as paper PMC10132805.

biological target: N 2-17 (BeV) (Berne virus (BEV)); details: both partners purified
measurement.name: pKd
Keep in mind that pKd stands for -log10 of concentration in molar terms.

Data request: Look at this binder and give its reported pKd. C terminal domain of polyadenylate-binding protein 1 (PABP1 PABC) (domain or fragment, also called PABPC1 PABC; PABP1 C) QEPLTASMLASAPPQEQKQMLGERLFPLIQAMHPTLAGKITGMLLEIDNSELLHMLESPESLRSKVDEAVAVLQAHQA
Data returned: 5.57
